test system: HOP-62; test: NCI tumour cell line growth inhibition, 48 h
The source made the active and inactive calls. Rule as the data show it: active = GI50 up to about 1.1 µM and inactive = higher.
Possible outcomes: 1 for active, -1 for inactive

compound	classification
COC(=O)C1=C(C)NC(=S)NC1c1ccc(N(CCCl)CCCl)cc1Cl (stereo not given)	-1
O/N=C/c1ncccc1C1OCCO1	-1
O=C(CSc1nnc(Cc2ccccc2)o1)Nc1ccc(Cl)cc1	-1
O=[N+]([O-])c1ccc(/N=N/N2CCCC2)cc1	-1
CCC(=O)C12OC3OC(C)(C)OC3C1OC(C)(C)O2 (stereo not given)	-1
COc1cccc(/C=C2\CCC(CCN(C)C)(C3=CCCC3)C2=O)c1 (stereo not given)	-1
O=c1c2ccccc2n2n1CC(O)C2 (stereo not given)	-1
CCCN(CCCC(NC(C)=O)C(=O)NCc1ccccc1)C(=O)N(C)N=O (stereo not given)	-1
Cc1cccc(/C=N/NC(=S)NC2CCCCC2)n1	-1
O=S1(=O)OCCOS(=O)(=O)C1S(=O)(=O)c1ccc2ccccc2c1	-1
O=P(O)(O)c1ccccc1Oc1ccccc1	-1
CN1C2CCC1CC(CCNC(c1ccccc1)c1ccccc1)C2 (stereo not given)	-1
COC(=O)C1=C(C(=O)OC)C2(/N=C(\Nc3ccccc3)c3ccccc3)N(c3ccc(OC)cc3)CC(c3ccccc3)N2O1 (stereo not given)	-1
C/C(=C/CC[C@](C)(OC1OC(CO)C(O)C(O)C1O)[C@H]1CC[C@]2(C)[C@@H]1CC[C@@H]1[C@@]3(C)CC[C@H](O)C(C)(C)[C@@H]3C[C@H](O)[C@]12C)CO (stereo not given in full)	-1
Cc1ccc(/C=N/n2c(Cc3ccccc3)n[nH]c2=O)cc1	-1
COc1ccc(CNC2=C(NC(C)=O)C(=O)c3ccccc3C2=O)cc1	-1
CC[C@@H]1ON(C)[C@H]2CN(C)C(=O)[C@@H]12	-1
CC(C)COC(=O)N1N=NC2C3CC(=O)C(O3)C21 (stereo not given)	-1
Cn1c2ccccc2c2c3c(c4c5ccccc5n(C)c4c21)C(=O)c1ccccc1C3=O	-1
CC1CCC[P+](Cc2ccccc2)(c2ccccc2)CC1 (stereo not given)	-1
CC(=O)NNc1nc(C)c(C(/C=C/c2ccc([N+](=O)[O-])cc2)=N/NC(N)=S)s1	-1
N#CC(c1ccc(O)cc1)N1CCN(C(C#N)c2ccc(O)cc2)CC1 (stereo not given)	-1
C/C(O[Si](C(C)C)(C(C)C)C(C)C)=C(\C)C(=O)N(C)c1ccccc1Cl	-1
O=C1NC(=S)NC(=O)C1=Cc1ccc(-c2ccccc2)cc1	-1
C/C(=C\CNc1nc(Cl)nc2[nH]cnc12)CO	-1
c1nncn1C12C3C4C5C3C1C5C42 (stereo not given)	-1
CN(C)c1ccc(C=C2C(=O)OC(C)(C)OC2=O)cc1Br	-1
O=c1n(Cc2ccccc2)c2ccccc2n1CC1CS1 (stereo not given)	-1
Cc1ccc(N2CCC3(CC2)OCCO3)cc1	-1
CC1(C)CCSC(/C=C/c2ccccc2)=N1	-1
COCOc1ccc(OC)cc1	-1
O=C1CC2(CCNCC2)C(=O)N1N1CCOCC1	-1
Cc1ccc(/C=C/C(=O)C(C)(C)CN2CCCCC2)cc1	-1
Cc1cccc(NC(=O)C(=O)C(C(=O)c2ccccc2F)C2OC(=O)c3ccccc32)c1Cl (stereo not given)	-1
CC(C)(C)[Si](C)(C)OC1(CCc2ccccc2OS(=O)(=O)C(F)(F)F)CCCC=C1COCc1ccccc1 (stereo not given)	-1
O=C1Nc2ccccc2C(=O)/C1=C/NC(=S)NC1CCCCC1	-1
CCC1C2C=CC(CC2)N1S(=O)(=O)c1ccc(C)cc1 (stereo not given)	-1
COc1ccc(/C=C2\CCC(C)(CN(C)C)C2=O)cc1OC (stereo not given)	-1
C/C(=N/NC(=S)Nc1ccccc1Cl)c1ccccn1	1
O=S(=O)(Cc1ccccc1)SCc1ccccc1	-1
